Tested on: 786-0 renal
assay_name: NCI tumour cell line growth inhibition, 48 h
Classification field: 1 (yes) = TGI at or over 30 µM; 0 (no) = TGI under 30 µM.

Here are 5 compounds together with their reported answers.
• COc1cccc(/C=N/NC(=S)NC2CC3CCC2C3)c1O (stereo unspecified) = 1 (yes)
• c1ccc(CN[C@]23C4C5CC6C7C5C2C7[C@@](NCc2ccccc2)(C64)N3Cc2ccccc2)cc1 (stereo partly specified) = 1 (yes)
• COc1cc(OC)c2nccc(NCCCN(C)C)c2c1[N+](=O)[O-] = 1 (yes)
• CNC(=S)N/N=C(\C(=N/NC(=S)NC)c1ccccn1)c1ccccn1 = 1 (yes)
• FC(F)(F)c1ccc(-c2cnc(-n3cc(COCCN4CCCCC4)nn3)nc2NC2CCCCCC2)cc1 = 0 (no)

**Q:** Entry `COc1cccc2c1-c1c(c3ccc([N+](=O)[O-])cc3c(=O)n1CCCN)C2=O` : is its TGI no less than 30 µM?
**A:** 0 (no)

**Q:** Entry COC(=O)C1=C(OC(=O)/C=C/c2ccccc2)C(C(=O)OC)[C@@]2(O)[C@@H](C(=O)OC)[C@H](C)C[C@@H]1[C@@H]2C(=O)OC (stereo partly specified) : is its TGI no less than 30 µM?
**A:** 1 (yes)

**Q:** Entry `O=C(/C=C/c1ccco1)c1ccc(NCc2nc3ccccc3[nH]2)cc1` : is its TGI no less than 30 µM?
**A:** 1 (yes)

**Q:** Entry Cc1cn(C2C=CC(CO)O2)c(=O)[nH]c1=O (stereo unspecified) : is its TGI no less than 30 µM?
**A:** 1 (yes)

**Q:** Entry `NNc1nncc2[nH]cnc12` : is its TGI no less than 30 µM?
**A:** 1 (yes)

**Q:** Entry `COc1ccc2c(c1)CC[C@@H]1[C@@H]2CC[C@]2(C)[C@@H](NC(=O)/C=C/c3ccc(O)c(O)c3)CC[C@@H]12` : is its TGI no less than 30 µM?
**A:** 0 (no)

Cited source: PubChem BioAssay (NCI)
